The origin of these recorded values is patent US20240101602A1.

Residues, ends and D or L forms follow the SMILES beside them. *: point of attachment. Hexanoyl = CCCCCC(=O)*; Butyryl = CCCC(=O)*
Below are MIC values measured for Staphylococcus aureus BCRC 10777.
Your answer is read as µg/mL, so omit the unit and give the number.

QUERY: Fill blank: measured MIC of the molecule CCCCCC(=O)N[C@@H](Cc1c[nH]c2ccccc12)C(=O)N[C@@H](CCCCN)C(=O)N[C@@H](CCCCN)C(=O)N[C@@H](CC(C)C)C(=O)N[C@@H](CCCCN)C(=O)N[C@@H](CCCCN)C(=O)N[C@@H](CC(C)C)C(=O)N[C@@H](CC(C)C)C(=O)N[C@@H](CCCCN)C(=O)N[C@@H](CCCCN)C(=O)N[C@@H](CC(C)C)C(N)=O [pepD3H] (Hexanoyl-WKKLKKLLKKL-NH2) is ____.
RESULT: 8

QUERY: Consider next the molecule CCCC(=O)N[C@@H](Cc1c[nH]c2ccccc12)C(=O)N[C@@H](CCCCN)C(=O)N[C@@H](CCCCN)C(=O)N[C@@H](CC(C)C)C(=O)N[C@@H](CCCCN)C(=O)N[C@@H](CCCCN)C(=O)N[C@@H](CC(C)C)C(=O)N[C@@H](CC(C)C)C(=O)N[C@@H](CCCCN)C(=O)N[C@@H](CCCCN)C(=O)N[C@@H](CC(C)C)C(N)=O [pepD3B] (Butyryl-WKKLKKLLKKL-NH2) in the same way.
RESULT: 16

---

Below are MIC values measured for Staphylococcus aureus BCRC 10777.
Non-standard residues stand in square brackets, D forms with d. Residues, ends and D or L forms follow the SMILES beside them. *: point of attachment. Myristoyl = CCCCCCCCCCCCCC(=O)*; Octanoyl = CCCCCCCC(=O)*
Your answer is read as µg/mL, so omit the unit and give the number.

QUERY: Fill blank: measured MIC of the compound CCCCCCCCCCCCCC(=O)N[C@@H](Cc1c[nH]c2ccccc12)C(=O)N[C@@H](CCCCN)C(=O)N[C@@H](CCCCN)C(=O)N[C@H](C(=O)N[C@@H](CCCCN)C(=O)N[C@@H](CCCCN)C(=O)N[C@@H](CC(C)C)C(=O)N[C@H](C(=O)N[C@@H](CCCCN)C(=O)N[C@@H](CCCCN)C(=O)N[C@@H](CC(C)C)C(N)=O)C(C)C)C(C)C [pepD3(V)M] (Myristoyl-WKKVKKLVKKL-NH2) is ____.
RESULT: 16

QUERY: Consider next the compound CCCCCCCC(=O)N[C@@H](Cc1c[nH]c2ccccc12)C(=O)N[C@@H](CCCCN)C(=O)N[C@@H](CCCCN)C(=O)N[C@@H](CC(C)C)C(=O)N[C@@H](CCCCN)C(=O)N[C@@H](CCCCN)C(=O)N[C@@H](CC(C)C)C(=O)N[C@@H](CC(C)C)C(=O)N[C@@H](CCCCN)C(=O)N[C@@H](CCCCN)C(=O)N[C@@H](CC(C)C)C(N)=O [pepD3O] (Octanoyl-WKKLKKLLKKL-NH2) in the same way.
RESULT: 8

QUERY: Consider next the compound CC(=O)N[C@@H](Cc1c[nH]c2ccccc12)C(=O)N[C@H](CCCCN)C(=O)N[C@H](CCCCN)C(=O)N[C@H](CC(C)C)C(=O)N[C@H](CCCCN)C(=O)N[C@H](CCCCN)C(=O)N[C@H](CC(C)C)C(=O)N[C@H](CC(C)C)C(=O)N[C@H](CCCCN)C(=O)N[C@H](CCCCN)C(=O)N[C@H](CC(C)C)C(=O)N[C@H](CCCCN)C(=O)N[C@H](CCCCN)C(=O)N[C@H](CC(C)C)C(N)=O [pepdD2, Ac-Wkklkkllkklkkl-NH2] (Ac-W[dK][dK][dL][dK][dK][dL][dL][dK][dK][dL][dK][dK][dL]-NH2) in the same way.
RESULT: 32

QUERY: Consider next the compound CCCCCCCCCCCCCC(=O)N[C@@H](Cc1c[nH]c2ccccc12)C(=O)N[C@@H](CCCCN)C(=O)N[C@@H](CCCCN)C(=O)N[C@H](C(=O)N[C@@H](CCCCN)C(=O)N[C@@H](CCCCN)C(=O)N[C@H](C(=O)N[C@H](C(=O)N[C@@H](CCCCN)C(=O)N[C@@H](CCCCN)C(=O)N[C@H](C(=O)N[C@@H](CCCCN)C(=O)N[C@@H](CCCCN)C(=O)N[C@H](C(N)=O)C(C)C)C(C)C)C(C)C)C(C)C)C(C)C [pepV2M] (Myristoyl-WKKVKKVVKKVKKV-NH2) in the same way.
RESULT: 8
